All figures here come from the supplement of paper PMC10567573.

B1: WDR41 (parent)
chain: WTMQAYERNFWDPSPQLDTQQEIK

- Variants of: B1
- Test Protocol: protein stability index of a GFP-peptide fusion (GPS, HEK-293T) (PSI 1-6); higher = more stable;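 note: lentivirally expressed fusions sorted by FACS into six bins by GFP to DsRed ratio, PSI derived from sequencing read proportions per bin multiplied by bin number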
- Run Parameters: c terminus: a fixed tail appended
Measurement Name: protein stability index
Format: numeric value only, no unit, no commentary.

>  <Variant String>
E7D

>  <Measurement Name>
protein stability index

>  <Reported Result>
3.25

$$$$

INPUT: Which measured protein stability index value corresponds to K24R ?
OUTPUT: 2.58

INPUT: Same question, N9T this time
OUTPUT: 2.52

INPUT: Further, for Q16Y ?
OUTPUT: 1.68

INPUT: Then what about the variant D18Y ?
OUTPUT: 1.97

INPUT: Quick one: I23P
OUTPUT: 2.97

INPUT: Follow-up item: Y6S
OUTPUT: 2.78
